Tested on: Avena fatua (AVEFA)
Assay: Example A glasshouse herbicide test, post-emergence, AVEFA
Format: in vivo
Details: Avena fatua, post-emergence, 312 h, Rate 250 g/ha, sprayed after 8 days cultivation, evaluated after 13 days, read-out: Post-Emergence Activity AVEFA (100=total damage to plant; 0=no damage to plant)
property: pest or weed control at 250 g/ha

Request the reported pest or weed control at 250 g/ha associated with Cc1cc(C)c(C2=C(OC(=O)C(C)(C)C)CC(Cc3cccc(Oc4ccccc4)c3)C2=O)c(C)c1 (stereo not shown)
0%

Consider the compound Cc1cc(C)c(C2C(=O)CC(CC3CCCCC3C)C2=O)c(C)c1 (stereo not shown) and give its measured pest or weed control at 250 g/ha.
0%

So what does the record say about pest or weed control at 250 g/ha for Cc1cc(C)c(C2C(=O)CC(Cc3ccc(-c4csnn4)cc3)C2=O)c(C)c1 (stereo not shown) ?
50%

Moving on to the next compound.
Which measured pest or weed control at 250 g/ha value corresponds to Cc1cc(C)c(C2=C(OC(=O)C(C)(C)C)C(CC3CCC(=O)CC3)CC2=O)c(C)c1 (stereo not shown) ?
90%
